Data credit: ChEMBL document CHEMBL4680318

- TEST: Growth inhibition of human HBC5 cells measured after 48 hrs by sulforhodamine B assay
- Assay type: functional
Reported GI50 values follow for various compounds

{"columns": ["COMPOUND", "READOUT_RELATION", "GI50 [µM]"],
 "data": [
  ["CC(C)(O)[C@@H]1Cc2c(cc(O)c3c(=O)c(-c4ccc(O)cc4)coc23)O1", "=", 6.76],
  ["CC(C)(O)[C@H]1Cc2c(cc(O)c3c(=O)c(-c4ccc(O)cc4)coc23)O1", ">", 100],
  ["COc1cc([C@@H]2c3cc4c(cc3[C@@H](O[C@@H]3O[C@@H]5CO[C@@H](C)O[C@H]5[C@H](O)[C@H]3O)[C@H]3COC(=O)[C@H]23)OCO4)cc(OC)c1O [ETOPOSIDE]", "=", 51.3],
  ["O=c1c(-c2ccc(O)cc2)coc2cc(O)cc(O)c12", "=", 26.9]
]}

---

- Tested on: U-251
- TEST: Growth inhibition of human U-251 cells measured after 48 hrs by sulforhodamine B assay
- Type: functional
ASSAY_READOUT: GI50

{"columns": ["COMPOUND", "ASSAY_READOUT", "OBSERVED_RESULT"],
 "data": [
  ["COc1cc([C@@H]2c3cc4c(cc3[C@@H](O[C@@H]3O[C@@H]5CO[C@@H](C)O[C@H]5[C@H](O)[C@H]3O)[C@H]3COC(=O)[C@H]23)OCO4)cc(OC)c1O [ETOPOSIDE]", "GI50", "2340 nM"],
  ["CC(C)(O)[C@H]1Cc2c(cc(O)c3c(=O)c(-c4ccc(O)cc4)coc23)O1", "GI50", "> 100000 nM"],
  ["CC(C)(O)[C@@H]1Cc2c(cc(O)c3c(=O)c(-c4ccc(O)cc4)coc23)O1", "GI50", "331 nM"],
  ["O=c1c(-c2ccc(O)cc2)coc2cc(O)cc(O)c12 [GENISTEIN]", "GI50", "42700 nM"]
]}

---

- Tested on: SK-OV-3
- TEST: Growth inhibition of human SK-OV-3 cells measured after 48 hrs by sulforhodamine B assay
- Format: functional
ASSAY_READOUT: GI50 (µM)

{"columns": ["COMPOUND", "OBSERVED_RESULT"],
 "data": [
  ["CC(C)(O)[C@H]1Cc2c(cc(O)c3c(=O)c(-c4ccc(O)cc4)coc23)O1", 26.9],
  ["O=c1c(-c2ccc(O)cc2)coc2cc(O)cc(O)c12", 89.1],
  ["COc1cc([C@@H]2c3cc4c(cc3[C@@H](O[C@@H]3O[C@@H]5CO[C@@H](C)O[C@H]5[C@H](O)[C@H]3O)[C@H]3COC(=O)[C@H]23)OCO4)cc(OC)c1O [ETOPOSIDE]", 3.98],
  ["CC(C)(O)[C@@H]1Cc2c(cc(O)c3c(=O)c(-c4ccc(O)cc4)coc23)O1", 0.427]
]}

---

Reported GI50 values follow for various molecules
- System: St-4
- TEST: Growth inhibition of human St-4 cells measured after 48 hrs by sulforhodamine B assay
- Assay type: functional
ASSAY_READOUT: GI50 (µM)

{"columns": ["MOLECULE", "ASSAY_READOUT", "UNIT_DESCRIPTOR", "READOUT_RELATION", "OBSERVED_RESULT"],
 "data": [
  ["O=c1c(-c2ccc(O)cc2)coc2cc(O)cc(O)c12 [GENISTEIN]", "GI50", "µM", "=", 46.8],
  ["CC(C)(O)[C@H]1Cc2c(cc(O)c3c(=O)c(-c4ccc(O)cc4)coc23)O1", "GI50", "µM", ">", 100],
  ["COc1cc([C@@H]2c3cc4c(cc3[C@@H](O[C@@H]3O[C@@H]5CO[C@@H](C)O[C@H]5[C@H](O)[C@H]3O)[C@H]3COC(=O)[C@H]23)OCO4)cc(OC)c1O [ETOPOSIDE]", "GI50", "µM", "=", 20.9],
  ["CC(C)(O)[C@@H]1Cc2c(cc(O)c3c(=O)c(-c4ccc(O)cc4)coc23)O1", "GI50", "µM", "=", 6.03]
]}
